molecular target: Luciferin 4-monooxygenase (Photinus pyralis, UniProt P08659); conditions: read-out: AC50
Sequence (P08659 whole entry): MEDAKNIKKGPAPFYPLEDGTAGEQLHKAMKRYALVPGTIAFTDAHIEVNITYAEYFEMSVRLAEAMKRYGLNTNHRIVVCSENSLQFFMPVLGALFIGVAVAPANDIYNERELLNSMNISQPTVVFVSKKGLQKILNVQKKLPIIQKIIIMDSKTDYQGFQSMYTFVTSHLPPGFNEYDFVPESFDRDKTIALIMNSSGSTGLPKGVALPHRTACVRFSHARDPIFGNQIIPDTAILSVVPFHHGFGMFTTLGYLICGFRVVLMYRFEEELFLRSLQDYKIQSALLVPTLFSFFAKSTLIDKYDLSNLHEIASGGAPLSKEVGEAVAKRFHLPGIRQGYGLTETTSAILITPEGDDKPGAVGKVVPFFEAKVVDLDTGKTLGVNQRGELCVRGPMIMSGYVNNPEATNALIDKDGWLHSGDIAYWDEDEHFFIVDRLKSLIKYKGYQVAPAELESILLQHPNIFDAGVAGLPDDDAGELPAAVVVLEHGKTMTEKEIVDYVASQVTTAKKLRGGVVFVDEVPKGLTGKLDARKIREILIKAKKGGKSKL
Description: GSK_PKIS: Inhibition of Firefly Luciferase (Data from PubChem: AID 652016) [NIH NCATS]
reportedProperty: AC50 (µM)
Numbers only, in µM.

Provide each entry's AC50 from the list below.
1. COc1cc(/C=N/Nc2ncnc3[nH]ncc23)ccc1O [GW578748X]
2. O=C1Nc2ccccc2/C1=C/Nc1ccc(-n2cncn2)cc1 [GW301789X]

# output
3.66
18.3

Provide each entry's AC50 from the list below.
1. N#Cc1c(NC(=O)c2ccc(F)cc2)sc2c1CCCC2
2. CN1CCC(n2cnc(-c3ccc(F)cc3)c2-c2ccnc(NCCO)n2)CC1

# output
1: 0.919; 2: 36.6
